Provenance of the data: patent US4849425A

- method: Absorbability through the gut, oral, aqueous and non-aqueous dispersing solvents, plasma concentration in rats (Test Example 5)
- Format: in vivo, Wistar male rats
- settings: rat, plasma, po, 20 mg/kg, 50% (w/v) dimethyl β-type cyclodextrin, oral 20 mg/kg, 24 hrs
- Description: 20 mg of Compound No. 3 was taken into a mortar, and 5 ml of an aqueous solution containing 1.7% of β-type cyclodextrin or 2% or 40% of dimethyl β-type cyclodextrin was added under stirring to obtain a suspension of Compound No. 3. […] After the removal of protein by acetonitrile, Compound No. 3 in the plasma was quantitatively analyzed by a high speed liquid chromatography as shown in Test Example 1. […]
readout: concentration at 24 h
Reply with the number, then its unit.

Tell me measured concentration at 24 h for O=C(NC(=O)c1ccccc1[N+](=O)[O-])Nc1ccc(Oc2ncc(Br)cn2)c(Cl)c1 please. 360 ng/mL

* * *

- method: Absorbability through the gut, oral, aqueous and non-aqueous dispersing solvents, plasma concentration in rats (Test Example 5)
- Format: in vivo, Wistar male rats
- settings: rat, plasma, po, 20 mg/kg, 5% (w/v) sucrose fatty acid ester/refined soybean oil, oral 20 mg/kg, 1 hr
readout: concentration at 1 h (ng/mL)
Numeric only. Scale: ng/mL

Tell me measured concentration at 1 h for O=C(NC(=O)c1ccccc1[N+](=O)[O-])Nc1ccc(Oc2ncc(Br)cn2)c(Cl)c1 please. 120

* * *

- method: Absorbability through the gut, oral, aqueous and non-aqueous dispersing solvents, plasma concentration in rats (Test Example 5)
- Format: in vivo, Wistar male rats
- settings: rat, plasma, po, 20 mg/kg, 10% (w/v) hydroxypropyl cellulose, oral 20 mg/kg, 3 hrs
readout: concentration at 3 h (ng/mL)
Numeric only. Scale: ng/mL

Tell me measured concentration at 3 h for O=C(NC(=O)c1ccccc1[N+](=O)[O-])Nc1ccc(Oc2ncc(Br)cn2)c(Cl)c1 please. 120

* * *

- method: Solubility of Compound No. 3 in aqueous cyclodextrin solutions or polyethylene glycol 400 at 25° C. (Test Example 2)
- Type: physicochemical
- settings: polyethylene glycol 400, organic solvent or mixture, polyethylene glycol 400, 100%
readout: solubility

Tell me measured solubility for O=C(NC(=O)c1ccccc1[N+](=O)[O-])Nc1ccc(Oc2ncc(Br)cn2)c(Cl)c1 please. 7500 µg/mL

* * *

- method: Absorbability through the gut, oral, aqueous and non-aqueous dispersing solvents, plasma concentration in rats (Test Example 5)
- Type: in vivo, Wistar male rats
- settings: rat, plasma, po, 20 mg/kg, 5% (w/v) Pluronic F31/ODO, oral 20 mg/kg, 24 hrs
readout: concentration at 24 h (ng/mL)
Numeric only. Scale: ng/mL

Tell me measured concentration at 24 h for O=C(NC(=O)c1ccccc1[N+](=O)[O-])Nc1ccc(Oc2ncc(Br)cn2)c(Cl)c1 please. 470

* * *

- method: Solubility of Compound No. 3 in aqueous cyclodextrin solutions or polyethylene glycol 400 at 25° C. (Test Example 2)
- Type: physicochemical
- settings: aqueous solution, no additives, aqueous solution containing no additives
readout: solubility

Tell me measured solubility for O=C(NC(=O)c1ccccc1[N+](=O)[O-])Nc1ccc(Oc2ncc(Br)cn2)c(Cl)c1 [Compound No. 3] please. 0.024 µg/mL

* * *

- method: Absorbability through the gut, oral, aqueous and non-aqueous dispersing solvents, plasma concentration in rats (Test Example 5)
- Type: in vivo, Wistar male rats
- settings: rat, plasma, po, 20 mg/kg, 5% (w/v) sucrose fatty acid ester/refined soybean oil, oral 20 mg/kg, 5 hrs
readout: concentration at 5 h (ng/mL)
Numeric only. Scale: ng/mL

Tell me measured concentration at 5 h for O=C(NC(=O)c1ccccc1[N+](=O)[O-])Nc1ccc(Oc2ncc(Br)cn2)c(Cl)c1 please. 550

* * *

- method: Absorbability through the gut, oral, aqueous and non-aqueous dispersing solvents, plasma concentration in rats (Test Example 5)
- Format: in vivo, Wistar male rats
- settings: rat, plasma, po, 20 mg/kg, 10% (w/v) hydroxypropyl cellulose, oral 20 mg/kg, 24 hrs
- Experimental: 20 mg of Compound No. 3 was taken into a mortar, and 5 ml of an aqueous solution containing 1.7% of β-type cyclodextrin or 2% or 40% of dimethyl β-type cyclodextrin was added under stirring to obtain a suspension of Compound No. 3. […] After the removal of protein by acetonitrile, Compound No. 3 in the plasma was quantitatively analyzed by a high speed liquid chromatography as shown in Test Example 1. […]
readout: concentration at 24 h (ng/mL)
Numeric only. Scale: ng/mL

Tell me measured concentration at 24 h for O=C(NC(=O)c1ccccc1[N+](=O)[O-])Nc1ccc(Oc2ncc(Br)cn2)c(Cl)c1 [Compound No. 3] please. 40

* * *

- method: Rectal suppository, plasma concentration in rats (Test Example 6)
- Format: in vivo, Wistar male rat
- settings: rat, plasma, 1.8 mg, control suppository without cyclodextrin, rectal, 1 hr
readout: concentration at 1 h (ng/mL)
Numeric only. Scale: ng/mL

Tell me measured concentration at 1 h for O=C(NC(=O)c1ccccc1[N+](=O)[O-])Nc1ccc(Oc2ncc(Br)cn2)c(Cl)c1 [Compound No. 3] please. 80

* * *

- method: Solubility of Compound No. 3 in aqueous cyclodextrin solutions or polyethylene glycol 400 at 25° C. (Test Example 2)
- Assay type: physicochemical
- settings: aqueous dimethyl β-type cyclodextrin, dimethyl β-type cyclodextrin 140 mg/ml, aqueous
readout: solubility (µg/mL)
Numeric only. Scale: µg/mL

Tell me measured solubility for O=C(NC(=O)c1ccccc1[N+](=O)[O-])Nc1ccc(Oc2ncc(Br)cn2)c(Cl)c1 please. 5180

* * *

- method: Oral capsules, plasma concentration in beagle dogs (Test Example 7)
- Assay type: in vivo
- settings: dog, plasma, po, 20 mg/kg, control, suspension in 0.5% sodium salt of carboxymethyl cellulose, 1 hr
readout: concentration at 1 h (ng/mL)
Numeric only. Scale: ng/mL

Tell me measured concentration at 1 h for O=C(NC(=O)c1ccccc1[N+](=O)[O-])Nc1ccc(Oc2ncc(Br)cn2)c(Cl)c1 [Compound No. 3] please. 70

* * *

- method: Absorbability through the gut, oral, aqueous and non-aqueous dispersing solvents, plasma concentration in rats (Test Example 5)
- Format: in vivo, Wistar male rats
- settings: rat, plasma, po, 20 mg/kg, 5% (w/v) sucrose fatty acid ester/refined sesame oil, oral 20 mg/kg, 3 hrs
readout: concentration at 3 h
Reply with the number, then its unit.

Tell me measured concentration at 3 h for O=C(NC(=O)c1ccccc1[N+](=O)[O-])Nc1ccc(Oc2ncc(Br)cn2)c(Cl)c1 please. 490 ng/mL

* * *

- method: Absorbability through the gut, oral, aqueous and non-aqueous dispersing solvents, plasma concentration in rats (Test Example 5)
- Assay type: in vivo, Wistar male rats
- settings: rat, plasma, po, 20 mg/kg, 10% (w/v) Pluronic F68, oral 20 mg/kg, 1 hr
readout: concentration at 1 h (ng/mL)
Numeric only. Scale: ng/mL

Tell me measured concentration at 1 h for O=C(NC(=O)c1ccccc1[N+](=O)[O-])Nc1ccc(Oc2ncc(Br)cn2)c(Cl)c1 please. 110

* * *

- method: Oral capsules, plasma concentration in beagle dogs (Test Example 7)
- Format: in vivo
- settings: dog, plasma, po, 20 mg/kg, polyethylene glycol 400 capsules of Example 3, oral 20 mg/kg, 1 hr
- Description: The capsules prepared in Example 3 corresponding to 20 mg/kg of Compound No. 3 were orally administered to three beagle dogs (male: body weight: 5 kg). Then, the blood was periodically sampled from the branchium vein, and the concentration of Compound No. 3 in the plasma was measured. To the control group, a suspension of Compound No. 3 (20 mg/ml) in an aqueous solution containing 0.5% of sodium salt of carboxymethyl cellulose was administered. […]
readout: concentration at 1 h (ng/mL)
Numeric only. Scale: ng/mL

Tell me measured concentration at 1 h for O=C(NC(=O)c1ccccc1[N+](=O)[O-])Nc1ccc(Oc2ncc(Br)cn2)c(Cl)c1 [Compound No. 3] please. 610

* * *

- method: Oral capsules, plasma concentration in beagle dogs (Test Example 7)
- Type: in vivo
- settings: dog, plasma, po, 20 mg/kg, control, suspension in 0.5% sodium salt of carboxymethyl cellulose, 2 hrs
- Method: The capsules prepared in Example 3 corresponding to 20 mg/kg of Compound No. 3 were orally administered to three beagle dogs (male: body weight: 5 kg). Then, the blood was periodically sampled from the branchium vein, and the concentration of Compound No. 3 in the plasma was measured. To the control group, a suspension of Compound No. 3 (20 mg/ml) in an aqueous solution containing 0.5% of sodium salt of carboxymethyl cellulose was administered. […]
readout: concentration at 2 h (ng/mL)
Numeric only. Scale: ng/mL

Tell me measured concentration at 2 h for O=C(NC(=O)c1ccccc1[N+](=O)[O-])Nc1ccc(Oc2ncc(Br)cn2)c(Cl)c1 please. 100

* * *

- method: Rectal suppository, plasma concentration in rats (Test Example 6)
- Assay type: in vivo, Wistar male rat
- settings: rat, plasma, 1.8 mg, control suppository without cyclodextrin, rectal, 2 hrs
- Protocol: A Witepsol W-35 suppository (weight: about 45 mg) comprising 1.8 mg of Compound No. 3 and 12.5% (weight/volume) of dimethyl β-type cyclodextrin, was administered to the rectum of each Wistar male rat having a body weight of about 90 g (a group of three rats). Then, the blood was periodically sampled from the jugular vein, and the concentration of Compound No. 3 in the plasma was measured. To a control group, a suppository contained no cyclodextrin was administered. […]
readout: concentration at 2 h (ng/mL)
Numeric only. Scale: ng/mL

Tell me measured concentration at 2 h for O=C(NC(=O)c1ccccc1[N+](=O)[O-])Nc1ccc(Oc2ncc(Br)cn2)c(Cl)c1 [Compound No. 3] please. 110
